Test system: HpSK M10A (Helicobacter pylori, UniProt P56073, M10A)
Construct: His6 (own knowledge: pQE30 vector gives an N-terminal MRGS-His6 tag)
Assay overview: Isothermal titration calorimetry, M10A
Settings: ITC, 25°C, ND = not detectable
Readout label: pKd
Scale note: pKd = -log10(concentration in M).

(Q) Hello, please tell me recorded pKd for this one: O=C(O)C1=C[C@@H](O)[C@@H](O)[C@H](O)C1 [shikimate, shikimic acid]
(A) 4.47

----------
Test system: HpSK F48Y (Helicobacter pylori, UniProt P56073, F48Y)
Construct: His6 (own knowledge: pQE30 vector gives an N-terminal MRGS-His6 tag)
Assay overview: Isothermal titration calorimetry, F48Y
Settings: ITC, 25°C, ND = not detectable
Readout label: pKd
Scale note: pKd = -log10(concentration in M).

(Q) Hello, please tell me recorded pKd for this one: O=C(O)C1=C[C@@H](O)[C@@H](O)[C@H](O)C1 [shikimate, shikimic acid]
(A) 5.28

Cited source: paper PMC3306394
